Tested on: HL-60(TB) leukemia
Test Summary: NCI tumour cell line growth inhibition, 48 h

Compound | Qualifier Operator | TGI (µM)
Nc1nc(Nc2ccccc2)c2[nH]cnc2n1 | > | 100
O=C(N/N=C/c1ccc([N+](=O)[O-])cc1)Nc1ccc(C(=O)O)cc1 | > | 100
Cc1ccc2nc(N/N=C/c3sccc3C)cc(C)c2c1 | > | 100
O=C1CSC2(CC(/C=C/c3cccc([N+](=O)[O-])c3)=NN2c2cccc(S(=O)(=O)O)c2)N1c1nc2ccccc2s1 (stereo not given) | = | 92.5
CC(=O)OCCOCNC(=S)N/N=C/c1cc(Br)cs1 | > | 100
COc1cc2c(cc1OCCCCN1CCN(C(=S)SCCC(C#N)(c3ccccc3)c3ccccc3)CC1)N=C[C@@H]1CCCN1C2=O | = | 1.57
CCOP1(=O)C=C(C)C(Cl)=C(C)C1 (stereo not given) | = | 53.9
NS(=O)(=O)c1ccc(-c2cc3ccncc3cc2OCc2ccccc2)cc1 | > | 19.3
O=C(CCCCCCN1CC(=O)N2[C@@H](c3ccc(Cl)c(Cl)c3)c3[nH]c4ccccc4c3C[C@H]2C1=O)NO | = | 4.32
C[N+](C)(C)c1ncnc2c1ncn2C1CC(O)C(CO)O1 (stereo not given) | > | 100

----------
System: SF-268 CNS
Test Summary: NCI tumour cell line growth inhibition, 48 h
// TGI lookup, one value per entry
Recorded Endpoint: TGI

Compound | Recorded Endpoint | Result
O=S(=O)(c1cccc(N=C=S)c1)c1cccc(N=C=S)c1 | TGI | 39.8 µM
O=C(/C=C/c1ccc(Oc2cc(C(=O)/C=C/c3ccc(O)cc3)c(O)cc2O)cc1)c1ccc(O)cc1O | TGI | 28.3 µM
Cc1ccc(NC(=O)CC2C(=O)Nc3ccccc3S2(=O)=O)c(C)c1 (stereo unspecified) | TGI | 39.6 µM
Fc1ccc(N2C(=S)SC(=Nc3ccccc3)C2=Nc2ccccc2)cc1 | TGI | > 100 µM
O=C1C(Cl)C2(CC(/C=C/c3ccccc3)=NN2c2cccc(S(=O)(=O)O)c2)N1c1nc2ccccc2s1 (stereo unspecified) | TGI | 43.4 µM
O=[N+]([O-])/C(C(Cl)=C(Cl)Cl)=C(/Cl)SCc1ccccc1 | TGI | 44.6 µM
CC(C)=CCN1CC(C)C(=O)Nc2ccccc21 (stereo unspecified) | TGI | > 100 µM
N#CC(C#N)c1ccc(C(=O)N2CCC[C@H]2CO)cc1 | TGI | > 100 µM
[N-]=[N+]=NI1OC(=O)c2ccccc21 | TGI | > 100 µM
CCOC(=O)NNC(=O)NCc1cccc(CNC(=O)NNC(=O)OCC)c1 | TGI | > 100 µM
C[N+]12C=CC=C1C(N1CCCC1)c1scc(-c3ccccc3)c12 (stereo unspecified) | TGI | > 100 µM
CCOP1(=O)C=C(C)C(Cl)=C(C)C1 (stereo unspecified) | TGI | > 100 µM
NC(=O)C(=CNC(=S)Nc1ccccc1)C(N)=O | TGI | > 100 µM
COC(=O)c1c(C)n([O-])c2cc(Cl)c(Cl)cc2[n+]1=O | TGI | > 100 µM
O=C(CC1SC(=Nc2ccccc2Cl)NC1=O)Nc1ccc(Cl)cc1Cl (stereo unspecified) | TGI | > 100 µM
c1ccc(-c2nc(N3CCNCC3)c3oc(-c4ccccc4)nc3n2)cc1 | TGI | 3.46 µM
Cc1ccc(S(=O)(=O)N/N=C(/CC(=O)c2c(C)n([O-])c3ccccc3[n+]2=O)C(=O)Nc2ccccc2C)cc1 | TGI | > 100 µM
Oc1ccc(C(c2ccc(O)cc2)c2ccc(Br)cn2)cc1 | TGI | > 91 µM
CCOC(=O)/C=C/CCO[Si](C)(C)C(C)(C)C | TGI | > 100 µM
CCCCCCCCCCCCC(Br)C(=O)NCC(N)=O (stereo unspecified) | TGI | 17.8 µM
O=C(O)c1cccc(C(=O)O)c1S(=O)Cc1ccccc1 (stereo unspecified) | TGI | > 100 µM

----------
Test system: SN12C renal
Test Summary: NCI tumour cell line growth inhibition, 48 h
// TGI lookup, one value per entry

Compound | Subject Of Test | TGI
NC1CC(=O)c2c1sc(Cl)c2Cl (stereo unspecified) | SN12C renal | > 100 µM
COc1cc(O)c2c(=O)c(O)c(-c3ccc(O)c(OC)c3)oc2c1 | SN12C renal | > 100 µM
Cc1cc(C#Cc2ccc(C(C)(C)C)cc2)ccc1-n1c(/C=C/c2ccc(O)cc2O)nc2ccccc2c1=O | SN12C renal | 4.13 µM
Cc1ccc(-c2nc([P+](c3ccccc3)(c3ccccc3)c3ccccc3)c(S(=O)(=O)c3ccc(C)cc3)o2)cc1 | SN12C renal | 2.34 µM
CCOP1(=O)CC(C)=C(Cl)C(O)C1 (stereo unspecified) | SN12C renal | > 100 µM
c1cnc2c(c1)ccc1cccnc12 | SN12C renal | > 28.2 µM

----------
// TGI lookup, one value per entry
Tested on: IGROV1 ovarian
Test Summary: NCI tumour cell line growth inhibition, 48 h

Compound | TGI
Cn1c(-c2ccccc2)cc(-c2cccs2)c1-c1cccs1 | > 100 µM
Cc1nc(C(=O)O)c2ccccc2n1 | > 100 µM
O=C(N/N=C/c1ccc([N+](=O)[O-])cc1)Nc1ccc(C(=O)O)cc1 | > 100 µM
COc1ccc(NC(=O)C2CCC(CNS(=O)(=O)c3ccccc3)CC2)cc1OC (stereo unspecified) | > 100 µM
CCOP1(=O)CC(C)=C(Cl)C(O)C1 (stereo unspecified) | > 100 µM
CC1CN=C(N(Cc2ccccc2)C(=O)Nc2ccc(Cl)c(Cl)c2)S1 (stereo unspecified) | > 100 µM
C/C(=C\CBr)CCC(Br)C(C)(C)Cl (stereo unspecified) | > 100 µM
Cc1cn(CCCCC2=NCCCN2)c(=O)[nH]c1=O | > 33.8 µM
CCOC(=O)C1(C(=O)OCC)[C@@H](c2ccccc2)C2=NO[C@@H]3CCC[C@H]1[C@H]23 | > 100 µM
CCc1c(C)c(C#N)c(=S)n(C2OC(COC(C)=O)C(OC(C)=O)C(OC(C)=O)C2OC(C)=O)c1-c1ccccc1 (stereo unspecified) | > 31.6 µM
O=S(=O)(/C=C/C(=C/c1ccccc1)S(=O)(=O)c1ccccc1)c1ccccc1 | 25 µM

----------
Tested on: HOP-62 NSCLC
Test Summary: NCI tumour cell line growth inhibition, 48 h

Molecule | Qualifier Operator | TGI (µM)
C#CCNC(=O)[C@H](CC)[C@H]1CC[C@H](C)[C@H]([C@@H](C)[C@H](O)[C@H](C)C(=O)[C@H](CC)C2O[C@]3(C=CC(=O)[C@]4(CC[C@@](C)([C@H]5CC[C@](O)(CC)[C@H](C)O5)O4)O3)[C@H](C)C[C@@H]2C)O1 (stereo not given in full) | = | 4.91
C=C1CC(c2ccc(OCCCN3C(=O)c4ccccc4C3=O)cc2)OC1=O (stereo not given) | = | 33.2
Cc1cc(N(CCCNc2ccnc3cc(Cl)ccc23)Cc2ccco2)nc(N2CCN(C)CC2)n1 | = | 14.3
Cc1ccc(-c2nc([P+](c3ccccc3)(c3ccccc3)c3ccccc3)c(S(=O)(=O)c3ccc(C)cc3)o2)cc1 | = | 4.56
CC1=NN(c2nc(N)nc(/C(C#N)=C\c3csc([N+](=O)[O-])c3)n2)C(C)(C)C1 | = | 64.6
COc1ccc(CCC2c3cc(OC)c(OC)cc3CCN2C)cc1OC (stereo not given) | > | 100
O=[N+]([O-])c1ccc(C(=S)Nc2ccccc2)o1 | = | 9.08
Cc1ccc(-c2nc(N/N=C/C=C/c3ccccc3)c3ccccc3n2)cc1 | > | 100
O=C(c1nc2ccccc2[nH]c1=O)C(O)c1ccccc1 (stereo not given) | > | 100
CCC1OC2C(CC=C(C)C)=C3OC(C)(O)C(C)(CC)C(OC(C)=O)C3=C3OC(=O)C=C1C32 (stereo not given) | = | 60.1

----------
Test system: DU-145 prostate
Test Summary: NCI tumour cell line growth inhibition, 48 h; in the data active = GI50 below about 0.43 µM; inactive = the rest
Outcomes: 1 (yes) for active, 0 (no) for inactive

Compound | Label
CSc1nc2sc3c(c2c(=O)n1-c1ccc(C(C)C)cc1)CCC(=O)C3 | 0 (no)
O=C(/C=C/c1cccc(O)c1)c1cccc(-n2cc(-c3ccccc3)[nH]c2=O)c1 | 0 (no)
CCC1(O)C(=O)OCc2c1cc1n(c2=O)Cc2cc3c(NC(=O)CN)cccc3nc2-1 (centres undefined) | 1 (yes)
C[C@]12CC[C@@H]3c4cc(OC(F)F)c(OS(N)(=O)=O)cc4CC[C@H]3[C@@H]1CC[C@@H]2O | 0 (no)
COc1cc2nc(-c3cc(F)ccc3O)nc(N[C@@H]3CNC[C@H]3C(C)(C)O)c2cc1OC | 0 (no)
Oc1cccc2ccc(N/N=C/c3cc(CN4CCOCC4)c(O)c4ncccc34)nc12 | 1 (yes)
CC1=C(CC(=O)c2cccc([N+](=O)[O-])c2)C(=O)c2ccccc2C1=O | 0 (no)
C#CCNC(=O)[C@H](CC)[C@H]1CC[C@H](C)[C@H]([C@@H](C)[C@H](O)[C@H](C)C(=O)[C@H](CC)C2O[C@]3(C=CC(=O)[C@]4(CC[C@@](C)([C@H]5CC[C@](O)(CC)[C@H](C)O5)O4)O3)[C@H](C)C[C@@H]2C)O1 (some centres undefined) | 0 (no)
CC(C)(O)CNc1nc(Nc2ccnc(C(F)(F)F)c2)nc(-c2cccc(C(F)(F)F)n2)n1 | 0 (no)
CCc1cccc(C)c1NC(=O)c1sc2nc3c(cc2c1N)C(=O)CCC3 | 0 (no)
Cc1ccc(-c2nc([P+](c3ccccc3)(c3ccccc3)c3ccccc3)c(S(=O)(=O)c3ccc(C)cc3)o2)cc1 | 0 (no)
COC1C(O)C(CO)OC(OC2C(O)COC(OC3C(C)OC(OC4C(O[C@H]5CC[C@@]6(C)C(CC=C7[C@H]6CCC68C(=O)O[C@@](C)(CCCC(C)C)[C@H]6[C@@H](OC(C)=O)C[C@@]78C)C5(C)C)OCC(OS(=O)(=O)O)C4O)C(OC4OCC(O)C(O)C4O)C3O)C2O)C1O (some centres undefined) | 1 (yes)
COC(=O)CCCCC(=O)c1c(C)[nH]c(/C=C2\N=C(c3ccc[nH]3)C=C2OC)c1C | 0 (no)
NS(=O)(=O)c1ccc(-c2cc3ccncc3cc2OCc2ccccc2)cc1 | 0 (no)
